Tested on: PBMCs infected with VSV-G pseudotyped HIV virus (VSV-G/pNLGI-P2A-ΔEnv)
Assay: cells
Type: cell-based
Conditions: Homo sapiens, PBMC, read-out: TACK EC50 (nM)
Recorded EC50 values for a group of compounds are listed next.
READOUT_TYPE: EC50 (nM)

# COMPOUND, RECORDED_RESULT
rows = [
    ("N#Cc1c(Cc2cc3c(cc2F)[C@@](C#CC2CC2)(C(F)(F)F)OC(=O)N3)ccnc1N (single isomer, unassigned) [Example 32A]", 111),
    ("CC(F)(F)[C@@]1(C#CC2CC2)OC(=O)Nc2cc(Cn3ccnc(N)c3=O)ccc21 [Example 8]", 30),
    ("O=C1Nc2cc(Cn3cnc(C(F)F)cc3=O)c(F)cc2[C@@](C#CC2CC2)(C(F)(F)F)O1 (single isomer, unassigned) [Example 7A]", 45),
    ("NS(=O)(=O)c1ccc(Cc2ccc3c(c2)NC(=O)O[C@]3(C#CC2CC2)C(F)(F)F)cc1 (single isomer, unassigned) [Example 30A]", 755),
    ("Cc1cc(=O)n(Cc2ccc3c(c2)NC(=O)O[C@]3(C#CC2CC2)C(C)(F)F)cn1 [Example 10]", 66),
    ("COCc1cc(=O)n(Cc2cc3c(cc2F)[C@@](C#CC2CC2)(C(F)(F)F)OC(=O)N3)cn1 (single isomer, unassigned) [Example 5A]", 35),
]

====

EC50 values by entry
System: PBMCs infected with VSV-G pseudotyped HIV virus (VSV-G/pNLGI-P2A-ΔEnv)
Experiment: cells
Format: cell-based
Settings: Homo sapiens, PBMC, read-out: TACK EC50 (nM)
READOUT_TYPE: EC50 (nM)

# COMPOUND, UNIT_STRING, RECORDED_RESULT
measured = [
    ("CC(F)(F)[C@@]1(C#CC2CC2)OC(=O)Nc2cc(Cn3ccnc(N)c3=O)c(Cl)cc21", "nM", 37),
    ("O=C1Nc2cc(Cn3cnccc3=O)c(Cl)cc2[C@@](C#CC2CC2)(C(F)(F)F)O1", "nM", 63),
    ("COc1cc(=O)n(Cc2cc3c(cc2Cl)[C@@](C#CC2CC2)(C(C)(F)F)OC(=O)N3)cn1", "nM", 11),
    ("Nc1nccn(Cc2cc3c(cc2Cl)[C@@](C#CC2CC2)(C(F)(F)F)OC(=O)N3)c1=O", "nM", 113),
    ("COc1cc(=O)n(Cc2cc3c(cc2F)[C@@](C#CC2CC2)(C(F)(F)F)OC(=O)N3)cn1 (single isomer, unassigned)", "nM", 25),
    ("COCc1cc(=O)n(Cc2ccc3c(c2)NC(=O)O[C@]3(C#CC2CC2)C(C)(F)F)cn1", "nM", 68),
    ("CC(F)(F)[C@@]1(C#CC2CC2)OC(=O)Nc2cc(Cn3cnccc3=O)c(F)cc21", "nM", 12),
]

====

System: PBMCs infected with VSV-G pseudotyped HIV virus (VSV-G/pNLGI-P2A-ΔEnv)
Experiment: cells
Assay type: cell-based
Conditions: Homo sapiens, PBMC, read-out: TACK EC50 (nM)
Label key: satisfied means EC50 under 20 nM; not satisfied means EC50 of 20 nM or more.

# COMPOUND, SUBJECT_OF_TEST, GROUP_LABEL
rows = [
    ("Nc1nccc(Cc2cc3c(cc2F)[C@@](C#CC2CC2)(C(F)(F)F)OC(=O)N3)n1 (single isomer, unassigned) [Example 31A]", "PBMCs infected with VSV-G pseudotyped HIV virus (VSV-G/pNLGI-P2A-ΔEnv)", "not satisfied"),
    ("COc1cc(=O)n(Cc2ccc3c(c2)NC(=O)O[C@]3(C#CC2CC2)C(C)(F)F)cn1 [Example 11]", "PBMCs infected with VSV-G pseudotyped HIV virus (VSV-G/pNLGI-P2A-ΔEnv)", "not satisfied"),
    ("CC(F)(F)[C@@]1(C#CC2CC2)OC(=O)Nc2cc(Cc3ccnc(N)n3)ccc21 [Example 37]", "PBMCs infected with VSV-G pseudotyped HIV virus (VSV-G/pNLGI-P2A-ΔEnv)", "not satisfied"),
    ("COc1cc(=O)n(Cc2cc3c(cc2F)[C@@](C#CC2CC2)(C(C)(F)F)OC(=O)N3)cn1 [Example 24]", "PBMCs infected with VSV-G pseudotyped HIV virus (VSV-G/pNLGI-P2A-ΔEnv)", "satisfied"),
    ("CC(F)(F)[C@@]1(C#CC2CC2)OC(=O)Nc2cc(Cn3cnccc3=O)ccc21 [Example 9]", "PBMCs infected with VSV-G pseudotyped HIV virus (VSV-G/pNLGI-P2A-ΔEnv)", "not satisfied"),
    ("O=C1Nc2cc(Cn3cnccc3=O)c(F)cc2[C@@](C#CC2CC2)(C(F)(F)F)O1 (single isomer, unassigned) [Example 2A]", "PBMCs infected with VSV-G pseudotyped HIV virus (VSV-G/pNLGI-P2A-ΔEnv)", "not satisfied"),
    ("CC(F)(F)[C@@]1(C#CC2CC2)OC(=O)Nc2cc(Cn3cncc(N)c3=O)c(F)cc21 [Example 20]", "PBMCs infected with VSV-G pseudotyped HIV virus (VSV-G/pNLGI-P2A-ΔEnv)", "satisfied"),
    ("CC(F)(F)[C@@]1(C#CC2CC2)OC(=O)Nc2cc(Cc3ccnc(N)c3C#N)c(Cl)cc21 [Example 34]", "PBMCs infected with VSV-G pseudotyped HIV virus (VSV-G/pNLGI-P2A-ΔEnv)", "not satisfied"),
    ("Cc1cc(=O)n(Cc2cc3c(cc2F)[C@@](C#CC2CC2)(C(F)(F)F)OC(=O)N3)cn1 (single isomer, unassigned) [Example 6A]", "PBMCs infected with VSV-G pseudotyped HIV virus (VSV-G/pNLGI-P2A-ΔEnv)", "not satisfied"),
    ("Nc1cncn(Cc2cc3c(cc2F)[C@@](C#CC2CC2)(C(F)(F)F)OC(=O)N3)c1=O (single isomer, unassigned) [Example 3A]", "PBMCs infected with VSV-G pseudotyped HIV virus (VSV-G/pNLGI-P2A-ΔEnv)", "not satisfied"),
    ("CC(F)(F)[C@@]1(C#CC2CC2)OC(=O)Nc2cc(Cn3ccnc(N)c3=O)c(F)cc21 [Example 21]", "PBMCs infected with VSV-G pseudotyped HIV virus (VSV-G/pNLGI-P2A-ΔEnv)", "satisfied"),
    ("CC(F)(F)[C@@]1(C#CC2CC2)OC(=O)Nc2cc(Cc3ccnc(N)n3)c(F)cc21 [Example 39]", "PBMCs infected with VSV-G pseudotyped HIV virus (VSV-G/pNLGI-P2A-ΔEnv)", "satisfied"),
    ("CC(F)(F)[C@@]1(C#CC2CC2)OC(=O)Nc2cc(Cc3ccnc(N)n3)c(Cl)cc21 [Example 40]", "PBMCs infected with VSV-G pseudotyped HIV virus (VSV-G/pNLGI-P2A-ΔEnv)", "not satisfied"),
    ("N#Cc1c(Cc2cc3c(cc2Cl)[C@@](C#CC2CC2)(C(F)(F)F)OC(=O)N3)ccnc1N [Example 33]", "PBMCs infected with VSV-G pseudotyped HIV virus (VSV-G/pNLGI-P2A-ΔEnv)", "not satisfied"),
    ("Nc1nccc(Cc2cc3c(cc2Cl)[C@@](C#CC2CC2)(C(F)(F)F)OC(=O)N3)n1 [Example 38]", "PBMCs infected with VSV-G pseudotyped HIV virus (VSV-G/pNLGI-P2A-ΔEnv)", "not satisfied"),
    ("CC(F)(F)[C@@]1(C#CC2CC2)OC(=O)Nc2cc(Cc3ccnc(N)c3C#N)c(F)cc21 [Example 36]", "PBMCs infected with VSV-G pseudotyped HIV virus (VSV-G/pNLGI-P2A-ΔEnv)", "satisfied"),
    ("COCc1cc(=O)n(Cc2cc3c(cc2Cl)[C@@](C#CC2CC2)(C(C)(F)F)OC(=O)N3)cn1 [Example 27]", "PBMCs infected with VSV-G pseudotyped HIV virus (VSV-G/pNLGI-P2A-ΔEnv)", "satisfied"),
    ("COCc1cc(=O)n(Cc2cc3c(cc2F)[C@@](C#CC2CC2)(C(C)(F)F)OC(=O)N3)cn1 [Example 23]", "PBMCs infected with VSV-G pseudotyped HIV virus (VSV-G/pNLGI-P2A-ΔEnv)", "satisfied"),
    ("Cc1cc(=O)n(Cc2cc3c(cc2Cl)[C@@](C#CC2CC2)(C(C)(F)F)OC(=O)N3)cn1 [Example 28]", "PBMCs infected with VSV-G pseudotyped HIV virus (VSV-G/pNLGI-P2A-ΔEnv)", "satisfied"),
    ("Nc1nccn(Cc2cc3c(cc2F)[C@@](C#CC2CC2)(C(F)(F)F)OC(=O)N3)c1=O (single isomer, unassigned) [Example 1A]", "PBMCs infected with VSV-G pseudotyped HIV virus (VSV-G/pNLGI-P2A-ΔEnv)", "not satisfied"),
]

src = patent US20240409531A1
